List of IC50 values.
- Tested on: M. tuberculosis H37Rv growth inhibition with meropenem
- run-description: dose response, H37Rv, with and without meropenem (AID 434987);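 also: growth over 7 days at 37 °C before Alamar Blue read on day 9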
- experimental-conditions: M. tuberculosis H37Rv growth inhibition; measured here: IC50 without meropenem
value-type: IC50 (µM)

- Cc1cc(C(=O)CSc2nnnn2-c2ccccc2)c(C)n1-c1ccc2c(c1)OCO2: 49.7
- Cc1cccc(Nc2nnc(SCC(=O)Nc3ncc(C(F)(F)F)cc3Cl)s2)c1C: 13.4
- O=C(O)CSc1ncnc2c1sc1nc(-c3ccccc3)c3c(c12)CCC3: 61.9
- Cn1nnnc1Sc1ncnc2scc(-c3ccc(C(F)(F)F)cc3)c12: 14.3
- COc1ccc(OC)c(NC(=O)c2ccccc2SC)c1: 83
